# system_under_test: T1, GFP-9S library array, motif 4 ND N98Y;D124S (synthetic construct, N98Y;D124S)
# T1 chain: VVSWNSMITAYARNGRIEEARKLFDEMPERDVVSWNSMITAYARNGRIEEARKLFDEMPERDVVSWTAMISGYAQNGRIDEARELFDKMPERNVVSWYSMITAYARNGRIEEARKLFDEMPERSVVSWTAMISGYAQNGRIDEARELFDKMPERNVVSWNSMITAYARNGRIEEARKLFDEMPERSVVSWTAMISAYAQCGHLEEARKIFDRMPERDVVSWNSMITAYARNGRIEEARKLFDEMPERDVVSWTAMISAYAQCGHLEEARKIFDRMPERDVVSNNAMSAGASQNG
# experiment_description: high-throughput RNA pulldown from lysate on Ni-NTA beads; HRP: 50 mM Tris pH 8, 150 mM NaCl, 1 mM beta-mercaptoethanol, 50 ug/ml BSA, 3 ug/ml yeast RNA, 0.5% heparin; ITC and FP: Tris pH 8, 200 mM KCl, 5% glycerol; MST: 50 mM Tris pH 8, 200 mM NaCl, 1 mM DTT, BSA, heparin, 0.05% Tween 20
# condition_set: tags: N-terminal His-eGFP; label: 5' Cy5

| binder | Kd |
| --- | --- |
| AUUACACGUGA (ssRNA) [Cy5-rpoA] | 0.168 µM |
| AUUAGACGUGA (ssRNA) [Cy5-rpoA-G] | 0.224 µM |
